Listed here: compounds with reported pKi for CRBN-DDB1 (Homo sapiens).
pKi: −log10 of the molar value.

- O=C1CCC(N2Cc3c(Cl)cc(CNc4nnc(-c5ccc(OC(F)(F)F)cc5)o4)cc3C2=O)C(=O)N1 (stereo not shown) [Compound 73]: ≥ 7.00
- O=C1CCC(N2Cc3ccc(CNC(=O)OCc4cc(-c5ccccc5)ccn4)cc3C2=O)C(=O)N1 (stereo not shown) [Compound 14]: 6.00 to 7.00
- O=C1CCC(N2Cc3ccc(CNc4nnc(-c5ccccc5)o4)cc3C2=O)C(=O)N1 (stereo not shown) [Compound 72]: ≥ 7.00

Dear colleague, could you please provide pKi for the compounds listed below?
1. O=C1CCC(N2Cc3ccc(CNC(=O)OCc4cccc(-c5ccc(C(F)(F)F)cc5)c4)cc3C2=O)C(=O)N1 (stereo not shown) [Compound 9]
2. O=C1CCC(N2Cc3ccc(CNC(=O)OCc4ccc(C5CCCO5)cc4)cc3C2=O)C(=O)N1 (stereo not shown) [Compound 18]
3. O=C1CCC(N2Cc3ccc(CCNC(=O)OCc4ccc(OC5CCOCC5)nc4)cc3C2=O)C(=O)N1 (stereo not shown) [Compound 1]
4. COc1cc(COC(=O)NCc2ccc3c(c2)C(=O)N(C2CCC(=O)NC2=O)C3)ccc1F (stereo not shown) [Compound 44]

6.00 to 7.00
6.00 to 7.00
6.00 to 7.00
≥ 7.00
